Compiled record: pIC50 values for Prothrombin (Bos taurus, UniProt P00735) across several sources.
pIC50: −log10 of the molar value.

Record N=C(N)c1ccc2cc(OC(=O)CCCC3CCCCC3)ccc2c1 . Reported pIC50: < 5.00

Record CC1(C)CC(=O)c2c(oc3c(Br)cc(NS(=O)(=O)c4ccccc4)cc23)C1 . Reported pIC50: < 4.70

Record Cc1csc(-c2cc3ccc(OCc4c(F)c(F)c(F)c(F)c4F)cc3oc2=O)n1 . Reported pIC50: < 4.70

Record Cc1ccc(OCc2nnc(NC(=O)Nc3cccc(Cl)c3)s2)cc1C . Reported pIC50: < 4.70

Record N=C(N)C=Cc1ccc(OC(=O)CCCCCNC(=O)OCc2ccccc2)cc1 . Reported pIC50: < 5.00

Record CN(C)c1ccc(C(=O)Oc2ccc(C=CC(=N)N)cc2)cc1 . Reported pIC50: < 5.00

Record O=[N+]([O-])c1cccc(C2Nc3ccc(Cl)cc3C3C=CCC32)c1 (centres unmarked) . Reported pIC50: < 4.70

Now for another entry.
Record CC(C)(C)c1ccc(C(=O)Oc2ccc(C=CC(=N)N)cc2)cc1 . Reported pIC50: 5.52
